protocol_text: Pharmacokinetics and tissue distribution of compounds in rats
Format: in vivo
reported_conditions: male, SD; brain; rat, PO 5 mg/kg; read-out: Peak concentration Cmax
property: Cmax (ng/mL)

• Cc1cc(Nc2cc(C)[nH]n2)nc(-c2ccc(N3CC4CC(C3)N4Cc3ccc(-n4cc(F)cn4)nc3)nc2)n1 [Compound 17] = 153
• CO[C@]1(C(=O)N[C@@H](C)c2ccc(-n3cc(F)cn3)nc2)CC[C@H](c2nc(C)cc(Nc3cc(C)[nH]n3)n2)CC1 [BLU-667, reference compound] = 30.8

----------
target_desc: UniProtKB P35968
protocol_text: VEGFR2 inhibition experiment (HTRF KinEASE-TK kit)
Type: biochemical
reported_conditions: 300 nM; read-out: Inhibition rate on VEGFR2
Experimental: Experimental method: According to the instructions of the HTRF KinEASE-TK kit (Cisbio), the compounds of the present disclosure were tested for their inhibitory effects on the VEGFR2 enzyme activity. After pre-incubation of the VEGFR2 enzyme and different concentrations of test compounds at room temperature for 30 min, a substrate and adenosine triphosphate (ATP) were added to initiate the reaction. […]
property: inhibition at 0.3 µM (%)

• Cc1cc(Nc2cc(C3CC3)[nH]n2)nc(-c2ccc(N3CC4CC(C3)N4Cc3ccc(-n4cc(F)cn4)nc3)nc2)n1 = 69
• CCc1ccnn1-c1ccc(CN2C3CC2CN(c2ccc(-c4nc(C)cc(Nc5cc(C)[nH]n5)n4)cn2)C3)cn1 = 79
• Cc1cc(Nc2cc(C)[nH]n2)nc(-c2ccc(N3CC4CC(C3)N4C(C)c3ccc(-n4cccn4)nc3)nc2)n1 (single isomer, unassigned) [Compound 125-2] = 63
• Cc1cc(Nc2cc(C)[nH]n2)nc(-c2ccc(N3CC4CC(C3)N4C(C)c3ccc(-n4cccn4)nc3)nc2)n1 (stereo not drawn) [Compound 125] = 44
• Cc1cc(Nc2cc(C)[nH]n2)nc(-c2ccc(N3C[C@H]4C[C@@H](C3)N4C(C)c3ccc(-n4cc(F)cn4)nc3)nc2)n1 (single isomer, unassigned) = 12
• Cc1cc(Nc2cc(C)[nH]n2)nc(-c2ccc(N3CC4CC(C3)N4Cc3ccc(-n4nccc4C)nc3)nc2)n1 = 69

----------
target_desc: UniProtKB P35968
protocol_text: VEGFR2 inhibition experiment (HTRF KinEASE-TK kit)
Assay type: biochemical
reported_conditions: 100 nM; read-out: Inhibition rate on VEGFR2
Think of 30% as a floor: if inhibition at 0.1 µM stands on it or above, it is 1 (yes); beneath it, 0 (no).

* Cc1cc(Nc2cc(C)[nH]n2)nc(-c2ccc(N3CC4CC(C3)N4Cc3ccc(Cl)nc3)nc2)n1 | 0 (no)
* Cc1cc(Nc2cc(C)[nH]n2)nc(-c2ccc(N3CC4CC(C3)N4Cc3ccc(-n4ccc(F)n4)nc3)nc2)n1 | 1 (yes)
* Cc1cc(Nc2cc(C)[nH]n2)nc(-c2ccc(N3CC4CC(C3)N4Cc3ccc(-n4cc(F)cn4)cc3)nc2)n1 | 0 (no)
* Cc1cc(Nc2cc(C)[nH]n2)nc(-c2ccc(N3CC4CC(C3)N4C(C)c3ccc(-n4cc(F)cn4)nc3)nc2)n1 (centres unmarked) | 0 (no)
* Cc1ccc(OC2CCN(c3ccc(-c4nc(C)cc(Nc5cc(C)[nH]n5)n4)cn3)CC2)cn1 | 0 (no)
* Cc1cc(Nc2cc(C)[nH]n2)nc(-c2ccc(N3CC4CC(C3)N4Cc3ccc(F)cc3)nc2)n1 | 0 (no)
* Cc1cc(Nc2cc(C)[nH]n2)nc(-c2ccc(N3CC4CC(C3)N4Cc3ccc(-c4cnn(C(C)C)c4)nc3)nc2)n1 | 1 (yes)
* COc1ccc(-c2ccc(CN3C4CC3CN(c3ccc(-c5nc(C)cc(Nc6cc(C)[nH]n6)n5)cn3)C4)cn2)cn1 | 0 (no)
* Cc1cc(Nc2cc(C)[nH]n2)nc(-c2ccc(N3CC4CC(C3)N4Cc3ccc(F)cn3)nc2)n1 | 0 (no)
* Cc1cnn(-c2ccc(CN3C4CC3CN(c3ccc(-c5nc(C)cc(Nc6cc(C)[nH]n6)n5)cn3)C4)cn2)c1 | 1 (yes)
* Cc1cc(Nc2cc(C)[nH]n2)nc(-c2ccc(N3CC4CC(C3)N4Cc3ccc(-c4cccn4C)nc3)nc2)n1 | 0 (no)
* Cc1cc(Nc2cc(C)[nH]n2)nc(-c2ccc(N3CC4CC(C3)N4Cc3cnc(C)s3)nc2)n1 | 0 (no)
* Cc1cc(Nc2cc(C)[nH]n2)nc(-c2ccc(N3CC4CC(C3)N4Cc3ccc(Cl)cc3)nc2)n1 | 0 (no)
* Cc1cc(Nc2cc(C)[nH]n2)nc(-c2ccc(N3CC4CC(C3)N4Cc3ccc(-n4ccc(C5CC5)n4)nc3)nc2)n1 | 0 (no)

----------
Let's look at some compounds and their measured Kp.
protocol_text: Pharmacokinetics and tissue distribution of compounds in rats
Format: in vivo
reported_conditions: male, SD; brain; rat, PO 5 mg/kg; read-out: T/P Ratio of AUClast in tissue to plasma
property: Kp

- CO[C@]1(C(=O)N[C@@H](C)c2ccc(-n3cc(F)cn3)nc2)CC[C@H](c2nc(C)cc(Nc3cc(C)[nH]n3)n2)CC1 [BLU-667, reference compound]: 0.018
- Cc1cc(Nc2cc(C)[nH]n2)nc(-c2ccc(N3CC4CC(C3)N4Cc3ccc(-n4cc(F)cn4)nc3)nc2)n1: 0.15

----------
protocol_text: Pharmacokinetics and tissue distribution of compounds in rats
Format: in vivo
reported_conditions: male, SD; brain; rat, PO 5 mg/kg; read-out: Time to peak concentration Tmax
property: Tmax (h)

• Cc1cc(Nc2cc(C)[nH]n2)nc(-c2ccc(N3CC4CC(C3)N4Cc3ccc(-n4cc(F)cn4)nc3)nc2)n1 [Compound 17] = 2
• CO[C@]1(C(=O)N[C@@H](C)c2ccc(-n3cc(F)cn3)nc2)CC[C@H](c2nc(C)cc(Nc3cc(C)[nH]n3)n2)CC1 [BLU-667, reference compound] = 0.5

----------
protocol_text: Pharmacokinetics and tissue distribution of compounds in rats
Type: in vivo
reported_conditions: male, SD; thyroid; rat, PO 5 mg/kg; read-out: T/P Ratio of AUClast in tissue to plasma
Each entry below carries its recorded Kp.
property: Kp

• CO[C@]1(C(=O)N[C@@H](C)c2ccc(-n3cc(F)cn3)nc2)CC[C@H](c2nc(C)cc(Nc3cc(C)[nH]n3)n2)CC1 [BLU-667, reference compound] = 0.73
• Cc1cc(Nc2cc(C)[nH]n2)nc(-c2ccc(N3CC4CC(C3)N4Cc3ccc(-n4cc(F)cn4)nc3)nc2)n1 = 1.68

----------
target_desc: VEGFR2 (Homo sapiens, UniProt P35968)
Sequence (P35968 20-1356, species assumed): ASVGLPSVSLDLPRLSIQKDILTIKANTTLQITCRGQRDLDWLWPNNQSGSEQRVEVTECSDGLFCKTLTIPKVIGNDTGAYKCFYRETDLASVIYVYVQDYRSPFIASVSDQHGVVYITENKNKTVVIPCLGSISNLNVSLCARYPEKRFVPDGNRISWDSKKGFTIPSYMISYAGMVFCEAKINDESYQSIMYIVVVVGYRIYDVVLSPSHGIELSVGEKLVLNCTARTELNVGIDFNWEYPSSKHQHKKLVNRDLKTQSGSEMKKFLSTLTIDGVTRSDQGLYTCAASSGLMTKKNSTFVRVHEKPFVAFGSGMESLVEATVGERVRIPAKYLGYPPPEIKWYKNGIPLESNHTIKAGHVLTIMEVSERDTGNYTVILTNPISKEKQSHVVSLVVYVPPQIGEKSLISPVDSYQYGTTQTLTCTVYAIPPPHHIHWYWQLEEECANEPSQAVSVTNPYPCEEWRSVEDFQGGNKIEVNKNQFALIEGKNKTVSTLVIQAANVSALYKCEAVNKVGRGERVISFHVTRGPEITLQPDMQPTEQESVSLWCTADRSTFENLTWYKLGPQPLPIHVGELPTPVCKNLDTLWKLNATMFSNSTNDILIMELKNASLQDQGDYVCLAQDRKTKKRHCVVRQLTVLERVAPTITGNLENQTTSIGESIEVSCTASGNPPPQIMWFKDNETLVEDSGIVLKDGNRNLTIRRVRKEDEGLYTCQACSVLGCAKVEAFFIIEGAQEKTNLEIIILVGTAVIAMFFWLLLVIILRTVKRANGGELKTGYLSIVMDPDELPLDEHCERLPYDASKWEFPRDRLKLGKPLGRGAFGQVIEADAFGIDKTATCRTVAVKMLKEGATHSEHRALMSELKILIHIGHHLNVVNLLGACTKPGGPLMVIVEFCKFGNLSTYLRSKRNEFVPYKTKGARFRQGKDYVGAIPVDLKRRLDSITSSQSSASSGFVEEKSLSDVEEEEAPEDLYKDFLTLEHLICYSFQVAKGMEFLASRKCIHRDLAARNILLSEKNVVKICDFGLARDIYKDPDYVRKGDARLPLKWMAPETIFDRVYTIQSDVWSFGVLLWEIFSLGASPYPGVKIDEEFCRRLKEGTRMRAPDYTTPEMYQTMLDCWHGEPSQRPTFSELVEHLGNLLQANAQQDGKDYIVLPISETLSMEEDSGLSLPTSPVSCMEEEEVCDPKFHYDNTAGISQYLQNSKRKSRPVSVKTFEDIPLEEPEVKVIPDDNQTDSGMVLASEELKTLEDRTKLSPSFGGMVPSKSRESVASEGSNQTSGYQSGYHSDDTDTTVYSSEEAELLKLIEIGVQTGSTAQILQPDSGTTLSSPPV
protocol_text: VEGFR2 inhibition experiment (HTRF KinEASE-TK kit)
Type: biochemical
reported_conditions: 100 nM; read-out: Inhibition rate on VEGFR2
Description: Experimental method: According to the instructions of the HTRF KinEASE-TK kit (Cisbio), the compounds of the present disclosure were tested for their inhibitory effects on the VEGFR2 enzyme activity. After pre-incubation of the VEGFR2 enzyme and different concentrations of test compounds at room temperature for 30 min, a substrate and adenosine triphosphate (ATP) were added to initiate the reaction. […]
Listing of recorded inhibition at 0.1 µM by entry.
property: inhibition at 0.1 µM (%)

* Cc1cc(Nc2cc(C)[nH]n2)nc(-c2ccc(N3CC4CC(C3)N4Cc3ccc(-n4ccc(F)n4)cc3)nc2)n1 [Compound 89] | 16
* COc1ccc(F)c(CN2C3CC2CN(c2ccc(-c4nc(C)cc(Nc5cc(C)[nH]n5)n4)cn2)C3)c1 [Compound 96] | 4
* Cc1cc(Nc2cc(C)[nH]n2)nc(-c2ccc(N3CC4CC(C3)N4Cc3ccc(-n4cc(F)cn4)nc3)nc2)c1 [Compound 6] | -11
* Cc1cc(Nc2cc(C)[nH]n2)nc(-c2ccc(N3CC4CC(C3)N4Cc3ccc(-n4cccn4)nc3)nc2)n1 [Compound 60] | 65
* Cc1cc(Nc2cc(C)[nH]n2)nc(-c2ccc(N3CC4CC(C3)N4Cc3ccc(-n4cccn4)cc3)nc2)n1 [Compound 86] | 52
* Cc1cnn(-c2ccc(CN3C4CC3CN(c3ccc(-c5nc(C)cc(Nc6cc(C)[nH]n6)n5)cn3)C4)cc2)c1 [Compound 88] | 32
* Cc1cc(Nc2cc(C)[nH]n2)nc(-c2ccc(N3CC4CC(C3)N4Cc3ccc(Cl)cn3)nc2)n1 [Compound 69] | 2
* Cc1cc(Nc2cc(C)[nH]n2)nc(-c2ccc(N3CC4CC(C3)N4Cc3ccc(-n4cnc(F)c4)nc3)nc2)n1 [Compound 64] | 38
* CCOc1ccc(CN2C3CC2CN(c2ccc(-c4nc(C)cc(Nc5cc(C)[nH]n5)n4)cn2)C3)cc1 [Compound 41] | 22
* Cc1cc(Nc2cc(C)[nH]n2)nc(-c2ccc(N3CC4CC(C3)N4Cc3ccc(-n4cc(C)c(C)n4)nc3)nc2)n1 [Compound 121] | 37
